# target.or.system: T1, PhrB Y430F (Agrobacterium fabrum, UniProt A9CH39 1-507, Y430F)
# T1 sequence: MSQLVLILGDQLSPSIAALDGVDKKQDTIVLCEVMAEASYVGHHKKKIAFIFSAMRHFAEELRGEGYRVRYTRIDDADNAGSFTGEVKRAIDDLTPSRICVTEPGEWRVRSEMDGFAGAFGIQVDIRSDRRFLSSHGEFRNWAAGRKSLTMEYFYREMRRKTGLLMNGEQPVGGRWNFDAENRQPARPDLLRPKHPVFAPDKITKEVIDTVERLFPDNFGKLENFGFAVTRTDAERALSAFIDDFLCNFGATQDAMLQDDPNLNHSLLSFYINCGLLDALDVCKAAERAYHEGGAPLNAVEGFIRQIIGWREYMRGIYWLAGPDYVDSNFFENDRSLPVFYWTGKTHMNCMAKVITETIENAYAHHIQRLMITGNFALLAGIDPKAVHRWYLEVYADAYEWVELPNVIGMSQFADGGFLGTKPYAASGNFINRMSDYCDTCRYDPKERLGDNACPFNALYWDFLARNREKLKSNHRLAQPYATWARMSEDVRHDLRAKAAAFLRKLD
# test: EMSA; reduced FAD, darkness; […] (buffer 1: 50 mM Tris-HCl pH 7.0, 1 mM EDTA, 100 mM NaCl, 5% glycerol, 20 mM DTT); or buffer 2: pH 7.5, 10 mM DTT; […]
# assay.setup: protein: recombinant; tags: C-terminal poly-His (pET21); label: 5' 32P; single strand
readout.name: Kd (µM)
Only the number, expressed in µM, is required.

{"columns": ["binder", "readout.name", "observed.result"],
 "data": [
  ["CATAGGTTGGCATA (ssDNA, (6-4) photoproduct at T7-T8 (the only TT; 254 nm UV, HPLC purified)) [EMSA_1 (6-4)TT photoproduct]", "Kd", 0.027]
]}

Please find the next binder below.
GET /value?item= CATAGGTTGGCATA (ssDNA) [EMSA_1 undamaged] &field=Kd returns 27
